Ref: patent US7022716B2

Structures can show the parent of a compound that is named as a salt.
# melting point per record follows

molecule: O=C(Nc1ccc(N2CCC(NC[C@H](O)COc3cccc4[nH]c5ccccc5c34)CC2)cc1)c1ccc2c(c1)OCO2
observed: 217 to 223 °C

Req: GET /values?readout=melting point&item= COC(=O)C1(NC(=O)c2ccc(N3CCC(NC[C@H](O)c4ccc(O)c(NS(C)(=O)=O)c4)CC3)cc2)CC1
Resp: > 110 °C (dec.)

Req: How about this molecule: CS(=O)(=O)Nc1cc([C@@H](O)CNC2CCN(c3ccc(C(=O)NCC(=O)O)cc3)CC2)ccc1O (as salt: sodium)
Resp: > 85 °C (dec.)

====

# melting point per record follows
Where a name gives a salt, the structure may show the parent alone.

Req: GET /values?readout=melting point&item= CS(=O)(=O)Nc1cc([C@@H](O)CNC2CCN(c3ccc(C(=O)N4CCC[C@H]4C(=O)O)cc3)CC2)ccc1O (as salt: sodium)
Resp: > 220 °C (dec.)

Req: How about this molecule: CCCCN(Cc1nnn[nH]1)C(=O)c1ccc(N2CCC(NC[C@H](O)c3ccc(O)c(NS(C)(=O)=O)c3)CC2)cc1
Resp: 168 to 170 °C

Req: How about this molecule: CS(=O)(=O)Nc1cc([C@@H](O)CNC2CCN(c3ccc(C(=O)N[C@H]4CCCCNC4=O)cc3)CC2)ccc1O
Resp: 135 to 137 °C

Req: How about this molecule: CCOC(=O)/C=C/c1ccc(N2CCC(NC[C@H](O)c3ccc(O)c(NS(C)(=O)=O)c3)CC2)cc1
Resp: 103 to 106 °C

Req: How about this molecule: O=C1NC(=O)C(Cc2ccc(N3CCC(NC[C@@H](O)c4cccnc4)CC3)cc2)S1 (stereo partly shown)
Resp: > 88 °C (dec.)

Req: How about this molecule: CCCC(=O)Nc1ccc(N2CCC(NC[C@H](O)COc3cccc4[nH]c(=O)[nH]c34)CC2)cc1
Resp: 190 to 201 °C

Req: How about this molecule: CS(=O)(=O)Nc1cc(OC[C@@H](O)CNC2CCN(c3ccc(CC4SC(=O)NC4=O)cc3)CC2)ccc1O (stereo partly shown)
Resp: > 70 °C (dec.)

====

endpoint.label: melting point

compound: CS(=O)(=O)Nc1cc([C@@H](O)CNC2CCN(c3ccc(C(=O)N[C@@H](CCC(=O)O)C(=O)O)cc3)CC2)ccc1O
endpoint.label: melting point
observed: > 230 °C (dec.)

Req: GET /values?readout=melting point&item= O=C1NC(=S)SC1=Cc1ccc(N2CCC(NC[C@H](O)COc3ccccc3)CC2)cc1
Resp: > 220 °C (dec.)

Req: How about this compound: O=C1NC(=O)C(Cc2ccc(N3CCC(NC[C@H](O)COc4cccc5[nH]c(=O)[nH]c45)CC3)cc2)S1 (stereo partly shown)
Resp: 173 to 175 °C (dec.)

Req: How about this compound: O=C1NC(=O)C(Cc2ccc(N3CCC(NC[C@H](O)COc4cccnc4)CC3)cc2)S1 (stereo partly shown)
Resp: 130 to 132 °C

Req: How about this compound: CS(=O)(=O)Nc1cc(C(O)CNC2CCN(c3ccc(-c4nnn[nH]4)cc3)CC2)ccc1O (stereo not shown)
Resp: > 175 °C (dec.)

Req: How about this compound: O=C1NC(=O)C(Cc2ccc(N3CCC(NC[C@H](O)c4cc(-c5ccc(Cl)c(Cl)c5)no4)CC3)cc2)S1 (stereo partly shown)
Resp: 110 °C

Req: How about this compound: O=C1CCc2c(OC[C@@H](O)CNC3CCN(c4ccc(CC5SC(=O)NC5=O)cc4)CC3)ccc(O)c2N1 (stereo partly shown)
Resp: > 140 °C (dec.)
